Assay: total protein half-life in vivo (active degradation + dilution); higher = more stable protein
Settings: E. coli NCM3722 delta-hslV; growth: N-lim chemostat; doubling time 6 h
EXPERIMENTAL_READOUT: total protein half-life in vivo (h)

INSERT INTO assay_data (query_sequence, readout_number) VALUES
  ('MFDFASYHRAATLADAINLLADNPQAKLLAGGTDVLIQLHHHNDRYRHIVDIHNLAELRGITLAEDGSLRIGSATTFTQLIEDPITQRHLPALCAAATSIAGPQIRNVATYGGNICNGATSADSATPTLIYDAKLEIHSPRGVRFVPINGFHTGPGKVSLEHDEILVAFHFPPQPKEHAGSAHFKYAMRDAMDISTIGCAAHCRLDNGNFSELRLAFGVAAPTPIRCQHAEQTAQNAPLNLQTLEAISESVLQDVAPRSSWRASKEFRLHLIQTMTKKVISEAVAAAGGKLQ', 3.19),
  ('MDYVCSVVFICQSFDLIINRRVISFKKNSLFIVSDKIRRELPVCPSKLRIVDIDKKTCLSFFIDVNNELPGKFTLDKNGYIAEEEPPLSLVFSLFEGIKIADSHSLWLKERLCISLLAMFKKRESVNSFILTNINTFTCKITGIISFNIERQWHLKDIAELIYTSESLIKKRLRDEGTSFTEILRDTRMRYAKKLITSNSYSINVVAQKCGYNSTSYFICAFKDYYGVTPSHYFEKIIGVTDGINKTID', 3.65),
  ('MSSEKLYSPLKVGAITAANRIFMAPLTRLRSIEPGDIPTPLMAEYYRQRASAGLIISEATQISAQAKGYAGAPGIHSPEQIAAWKKITAGVHAENGHMAVQLWHTGRISHASLQPGGQAPVAPSALSAGTRTSLRDENGQAIRVETSMPRALELEEIPGIVNDFRQAIANAREAGFDLVELHSAHGYLLHQFLSPSSNHRTDQYGGSVENRARLVLEVVDAGIEEWGADRIGIRVSPIGTFQNTDNGPNEEADALYLIEQLGKRGIAYLHMSEPDWAGGEPYTDAFREKVRARFHGPIIGAGAYTVEKAETLIGKGLIDAVAFGRDWIANPDLVARLQRKAELNPQRAESFYGGGAEGYTDYPTL', 1.51),
  ('MLKRVFLSLLVLIGLLLLTVLGLDRWMSWKTAPYIYDELQDLPYRQVGVVLGTAKYYRTGVINQYYRYRIQGAINAYNSGKVNYLLLSGDNALQSYNEPMTMRKDLIAAGVDPSDIVLDYAGFRTLDSIVRTRKVFDTNDFIIITQRFHCERALFIALHMGIQAQCYAVPSPKDMLSVRIREFAARFGALADLYIFKREPRFLGPLVPIPAMHQVPEDAQGYPAVTPEQLLELQKKQGK [P0AFY2]', 6.88),
  ('MELKDYYAIMGVKPTDDLKTIKTAYRRLARKYHPDVSKEPDAEARFKEVAEAWEVLSDEQRRAEYDQMWQHRNDPQFNRQFHHGDGQSFNAEDFDDIFSSIFGQHARQSRQRPATRGHDIEIEVAVFLEETLTEHKRTISYNLPVYNAFGMIEQEIPKTLNVKIPAGVGNGQRIRLKGQGTPGENGGPNGDLWLVIHIAPHPLFDIVGQDLEIVVPVSPWEAALGAKVTVPTLKESILLTIPPGSQAGQRLRVKGKGLVSKKQTGDLYAVLKIVMPPKPDENTAALWQQLADAQSSFDPRKDWGKA', 5.26),
  ('MRLTSKGRYAVTAMLDVALNSEAGPVPLADISERQGISLSYLEQLFSRLRKNGLVSSVRGPGGGYLLGKDASSIAVGEVISAVDESVDATRCQGKGGCQGGDKCLTHALWRDLSDRLTGFLNNITLGELVNNQEVLDVSGRQHTHDAPRTRTQDAIDVKLRA [P0AGK8]', 1.38),
  ('MEKGTVKWFNNAKGFGFICPEGGGEDIFAHYSTIQMDGYRTLKAGQSVQFDVHQGPKGNHASVIVPVEVEAAVA [P0A968]', 0.144),
  ('MKGGKRVQTARPNRINGEIRAQEVRLTGLEGEQLGIVSLREALEKAEEAGVDLVEISPNAEPPVCRIMDYGKFLYEKSKSSKEQKKKQKVIQVKEIKFRPGTDEGDYQVKLRSLIRFLEEGDKAKITLRFRGREMAHQQIGMEVLNRVKDDLQELAVVESFPTKIEGRQMIMVLAPKKKQ [P0A707]', 5.02),
  ('MVEDILAPGLRVVFCGINPGLSSAGTGFPFAHPANRFWKVIYQAGFTDRQLKPQEAQHLLDYRCGVTKLVDRPTVQANEVSKQELHAGGRKLIEKIEDYQPQALAILGKQAYEQGFSQRGAQWGKQTLTIGSTQIWVLPNPSGLSRVSLEKLVEAYRELDQALVVRGR [P0A9H1]', 6.31),
  ('MKSVLKVSLAALTLAFAVSSHAADKKLVVATDTAFVPFEFKQGDKYVGFDVDLWAAIAKELKLDYELKPMDFSGIIPALQTKNVDLALAGITITDERKKAIDFSDGYYKSGLLVMVKANNNDVKSVKDLDGKVVAVKSGTGSVDYAKANIKTKDLRQFPNIDNAYMELGTNRADAVLHDTPNILYFIKTAGNGQFKAVGDSLEAQQYGIAFPKGSDELRDKVNGALKTLRENGTYNEIYKKWFGTEPK [P0AEQ3]', 6.84),
  ('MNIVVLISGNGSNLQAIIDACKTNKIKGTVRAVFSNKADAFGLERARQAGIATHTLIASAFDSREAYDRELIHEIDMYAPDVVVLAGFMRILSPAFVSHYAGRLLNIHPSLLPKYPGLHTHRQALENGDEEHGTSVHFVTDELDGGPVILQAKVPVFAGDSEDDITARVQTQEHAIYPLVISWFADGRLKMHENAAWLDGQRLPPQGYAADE', 5.15),
  ('MIAELFTNNALNLVIIFGSCAALILMSFWFRRGNRKRKGFLFHAVQFLIYTIIISAVGSIINYVIENYKLKFITPGVIDFICTSLIAVILTIKLFLLINQFEKQQIKKGRDITSARIMSRIIKITIIVVLVLLYGEHFGMSLSGLLTFGGIGGLAVGMAGKDILSNFFSGIMLYFDRPFSIGDWIRSPDRNIEGTVAEIGWRITKITTFDNRPLYVPNSLFSSISVENPGRMTNRRITTTIGLRYEDAAKVGVIVEAVREMLKNHPAIDQRQTLLVYFNQFADSSLNIMVYCFTKTTVWAEWLAAQQDVYLKIIDIVQSHGADFAFPSQTLYMDNITPPEQGR [P0AEB5]', 6.48);

----------
Experiment: total protein half-life in vivo (active degradation + dilution); higher = more stable protein
Conditions: E. coli NCM3722 delta-clpP; growth: N-lim chemostat; doubling time 6 h
Note to self: class = bucket of total protein half-life in vivo, per group 1 = under 3 h, group 2 = from 3 h up to 5 h, group 3 = 5 h and over

INSERT INTO results (query_sequence, label_value) VALUES
  ('MKTMLAAYLPGNSTVDLREVAVPTPGINQVLIKMKSSGICGSDVHYIYHQHRATAAAPDKPLYQGFINGHEPCGQIVAMGQGCRHFKEGDRVLVYHISGCGFCPNCRRGFPISCTGEGKAAYGWQRDGGHAEYLLAEEKDLILLPDALSYEDGAFISCGVGTAYEGILRGEVSGSDNVLVVGLGPVGMMAMMLAKGRGAKRIIGVDMLPERLAMAKQLGVMDHGYLATTEGLPQIIAELTHGGADVALDCSGNAAGRLLALQSTADWGRVVYIGETGKVEFEVSADLMHHQRRIIGSWVTSLFHMEKCAHDLTDWKLWPRNAITHRFSLEQAGDAYALMASGKCGKVVINFPD', 'group 1'),
  ('MATTQQSGFAPAASPLASTIVQTPDDAIVAGFTSIPSQGDNMPAYHARPKQSDGPLPVVIVVQEIFGVHEHIRDICRRLALEGYLAIAPELYFREGDPNDFADIPTLLSGLVAKVPDSQVLADLDHVASWASRNGGDVHRLMITGFCWGGRITWLYAAHNPQLKAAVAWYGKLTGDKSLNSPKQPVDIATDLNAPILGLYGGQDNSIPQESVETMRQALRAANAKAEIIVYPDAGHAFNADYRPSYHAASAEDGWQRMLEWFKQYGGKKSL', 'group 2'),
  ('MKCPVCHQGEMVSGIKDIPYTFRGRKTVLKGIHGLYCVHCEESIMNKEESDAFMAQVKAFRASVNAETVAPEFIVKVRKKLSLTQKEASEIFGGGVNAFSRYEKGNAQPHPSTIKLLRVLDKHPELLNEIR', 'group 1'),
  ('MPKKNEAPASFEKALSELEQIVTRLESGDLPLEEALNEFERGVQLARQGQAKLQQAEQRVQILLSDNEDASLTPFTPDNE [P0A8G9]', 'group 3'),
  ('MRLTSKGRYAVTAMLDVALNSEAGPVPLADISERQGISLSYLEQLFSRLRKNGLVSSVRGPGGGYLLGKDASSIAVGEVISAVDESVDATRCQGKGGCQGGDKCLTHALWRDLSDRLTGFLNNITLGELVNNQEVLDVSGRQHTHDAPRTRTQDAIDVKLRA [P0AGK8]', 'group 1'),
  ('MRKSVIAIIIIVLVVLYMSVFVVKEGERGITLRFGKVLRDDDNKPLVYEPGLHFKIPFIETVKMLDARIQTMDNQADRFVTKEKKDLIVDSYIKWRISDFSRYYLATGGGDISQAEVLLKRKFSDRLRSEIGRLDVKDIVTDSRGRLTLEVRDALNSGSAGTEDEVTTPAADNAIAEAAERVTAETKGKVPVINPNSMAALGIEVVDVRIKQINLPTEVSEAIYNRMRAEREAVARRHRSQGQEEAEKLRATADYEVTRTLAEAERQGRIMRGEGDAEAAKLFADAFSKDPDFYAFIRSLRAYENSFSGNQDVMVMSPDSDFFRYMKTPTSATR [P0ABC3]', 'group 3'),
  ('MNDAIPRPQAKTRKALTPLLEIRNLTKSYDGQHAVDDVSLTIYKGEIFALLGASGCGKSTLLRMLAGFEQPSAGQIMLDGVDLSQVPPYLRPINMMFQSYALFPHMTVEQNIAFGLKQDKLPKAEIASRVNEMLGLVHMQEFAKRKPHQLSGGQRQRVALARSLAKRPKLLLLDEPMGALDKKLRDRMQLEVVDILERVGVTCVMVTHDQEEAMTMAGRIAIMNRGKFVQIGEPEEIYEHPTTRYSAEFIGSVNVFEGVLKERQEDGLVLDSPGLVHPLKVDADASVVDNVPVHVALRPEKIMLCEEPPANGCNFAVGEVIHIAYLGDLSVYHVRLKSGQMISAQLQNAHRHRKGLPTWGDEVRLCWEVDSCVVLTV', 'group 3'),
  ('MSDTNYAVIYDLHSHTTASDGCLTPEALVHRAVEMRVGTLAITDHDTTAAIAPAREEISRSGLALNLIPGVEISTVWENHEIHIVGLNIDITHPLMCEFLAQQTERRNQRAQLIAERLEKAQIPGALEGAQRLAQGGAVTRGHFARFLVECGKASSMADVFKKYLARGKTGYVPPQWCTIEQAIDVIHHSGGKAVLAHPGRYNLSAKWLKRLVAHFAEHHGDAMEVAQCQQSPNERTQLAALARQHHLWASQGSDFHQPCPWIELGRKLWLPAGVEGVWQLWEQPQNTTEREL', 'group 1'),
  ('MHGNSEMQKINQTSAMPEKTDVHWSGRFSVAPMLDWTDRHCRYFLRLLSRNTLLYTEMVTTGAIIHGKGDYLAYSEEEHPVALQLGGSDPAALAQCAKLAEARGYDEINLNVGCPSDRVQNGMFGACLMGNAQLVADCVKAMRDVVSIPVTVKTRIGIDDQDSYEFLCDFINTVSGKGECEMFIIHARKAWLSGLSPKENREIPPLDYPRVYQLKRDFPHLTMSINGGIKSLEEAKAHLQHMDGVMVGREAYQNPGILAAVDREIFGSSDTDADPVAVVRAMYPYIERELSQGTYLGHITRHMLGLFQGIPGARQWRRYLSENAHKAGADINVLEHALKLVADKR', 'group 2'),
  ('MNKVAQYYRELVASLSERLRNGERDIDALVEQARERVIKTGELTRTEVDELTRAVRRDLEEFAMSYEESLKEESDSVFMRVIKESLWQELADITDKTQLEWREVFQDLNHHGVYHSGEVVGLGNLVCEKCHFHLPIYTPEVLTLCPKCGHDQFQRRPFEP [P0AAT9]', 'group 2');
